- structure smiles string: "CCC[C@@H](N(NC(=O)c1cccc(OC)c1)C(=O)c1cc(C)cc(C)c1)C(C)(C)C"
  melting point: "110 to 111 °C"
- structure smiles string: "CCC[C@@H](N(NC(=O)c1ccccc1F)C(=O)c1cc(C)cc(C)c1)C(C)(C)C"
  melting point: "114 to 116 °C"
- structure smiles string: "CCC[C@@H](N(NC(=O)c1c(F)cccc1F)C(=O)c1cc(C)cc(C)c1)C(C)(C)C"
  melting point: "180 to 182 °C"
- structure smiles string: "CCC[C@@H](N(NC(=O)[C@@H](C)c1ccc2cc(OC)ccc2c1)C(=O)c1cc(C)cc(C)c1)C(C)(C)C"
  melting point: "98 °C"
- structure smiles string: "CCC[C@@H](N(NC(=O)c1ccc(OC)c(OC)c1)C(=O)c1cc(C)cc(C)c1)C(C)(C)C"
  melting point: "121 to 123 °C"
- structure smiles string: "CCC[C@@H](N(NC(=O)c1ccc(OC)cc1)C(=O)c1cc(C)cc(C)c1)C(C)(C)C"
  melting point: "65 to 67 °C"
- structure smiles string: "CCC[C@@H](N(NC(=O)c1cccc2ccccc12)C(=O)c1cc(C)cc(C)c1)C(C)(C)C"
  melting point: "173 to 174 °C"

----------
# assayed system: [V390I/Y410E/E274V]-CfEcR (Choristoneura fumiferana, UniProt O77240)
# Construct: assay construct b835
# Assay type: cell-based
# assay context: S, 3T3 Cells
Exam item: assign Satisfied to entries whose EC50 is below 0.1 µM and Not satisfied to entries at or above 0.1 µM. Note that a value of exactly 0.1 µM receives Not satisfied.

- structure smiles string: "CCC[C@H](N(NC(=O)c1cccc(C)c1)C(=O)c1cc(C)cc(C)c1)C(C)(C)C"
  assayed system: "[V390I/Y410E/E274V]-CfEcR (Choristoneura fumiferana, UniProt O77240)"
  class: "Not satisfied"
- structure smiles string: "CCC[C@H](N(NC(=O)c1cccnc1Cl)C(=O)c1cc(C)cc(C)c1)C(C)(C)C"
  assayed system: "[V390I/Y410E/E274V]-CfEcR (Choristoneura fumiferana, UniProt O77240)"
  class: "Not satisfied"
- structure smiles string: "CCC[C@H](N(NC(=O)c1ccccc1F)C(=O)c1cc(C)cc(C)c1)C(C)(C)C"
  assayed system: "[V390I/Y410E/E274V]-CfEcR (Choristoneura fumiferana, UniProt O77240)"
  class: "Satisfied"
- structure smiles string: "CCC[C@@H](C1CCCCC1)N(NC(=O)c1cccc(OC)c1CC)C(=O)c1cc(C)cc(C)c1"
  assayed system: "[V390I/Y410E/E274V]-CfEcR (Choristoneura fumiferana, UniProt O77240)"
  class: "Not satisfied"
- structure smiles string: "CCC[C@H](N(NC(=O)c1cccs1)C(=O)c1cc(C)cc(C)c1)C(C)(C)C"
  assayed system: "[V390I/Y410E/E274V]-CfEcR (Choristoneura fumiferana, UniProt O77240)"
  class: "Not satisfied"

----------
Reported melting point values for the following compounds.
property name: melting point

- structure smiles string: "CCC[C@@H](N(NC(=O)c1c(Cl)cccc1Cl)C(=O)c1cc(C)cc(C)c1)C(C)(C)C"
  result: "185 to 187 °C"
- structure smiles string: "CCC[C@@H](N(NC(=O)c1ccccc1C)C(=O)c1cc(C)cc(C)c1)C(C)(C)C"
  result: "137 to 138 °C"
- structure smiles string: "C=CC[C@H](N(NC(=O)OCc1ccccc1)C(=O)c1cc(C)cc(C)c1)C(C)(C)C"
  result: "150 to 151.5 °C"
- structure smiles string: "CCC[C@@H](N(NC(=O)c1ccccc1Cl)C(=O)c1cc(C)cc(C)c1)C(C)(C)C"
  result: "138 to 140 °C"
- structure smiles string: "CCC[C@@H](N(NC(=O)c1cccc(Cl)c1)C(=O)c1cc(C)cc(C)c1)C(C)(C)C"
  result: "163 to 164 °C"
- structure smiles string: "CCC[C@@H](N(NC(=O)c1ccc(C)cc1)C(=O)c1cc(C)cc(C)c1)C(C)(C)C"
  result: "60 to 62 °C"
- structure smiles string: "CCC[C@@H](N(NC(=O)c1ccccc1)C(=O)c1cc(C)cc(C)c1)C(C)(C)C"
  result: "66 to 68 °C"
- structure smiles string: "CCC[C@@H](N(NC(=O)c1ccc(Cl)cc1)C(=O)c1cc(C)cc(C)c1)C(C)(C)C"
  result: "87 to 89 °C"
- structure smiles string: "CCC[C@@H](N(NC(=O)c1cc(F)cc(F)c1)C(=O)c1cc(C)cc(C)c1)C(C)(C)C"
  result: "192 to 194 °C"
